Where do the numbers come from? From patent US20170088605A1.

# EXPERIMENTAL TARGET: JCV infectious virus, isolates Mad-1 and Mad-4 (VP1) (JC virus)
# METHOD: cell-based or functional assay
RECORDED ENDPOINT: neutralization EC90 (µg/mL)
One number for each entry, in µg/mL.

Sample 2077-7-5 (antibody, V domains shown) VH: EVQLQQSGPELVKPGASMKISCKASGYSFTGYTMNWVKQSHGKNLEWIGLFNPYNGGINYNQKFKGKATLTVDKSSSTAYMELLSLTSEDSAVYYCARLRYYGIGDDFFDYWGQGTSLTVSS VL: DIVMTQSHKFMSTSVGDRVSITCKASRDVGTAVAWYQQKPGQSPKLLIYWASTRHTGVPDRFTGSGSGTDFTLTISNVQSEDLADYFCQQYSNYPYTFGGGTKLEMK — what was its neutralization EC90?
1.1
